Values from ChEMBL document CHEMBL1155941

Test system: Agrobacterium tumefaciens
Assay: Inhibition of Agrobacterium tumefaciens-induced tumor growth in potato tuber disk after 21 days
Assay type: functional, organism-based
Reported Endpoint: log10 IC50 (log10 of the value in ppm)

# Molecule, Study Target, log10 IC50
records = [
    ("Cc1ccc(C2CC(c3cccc(O)c3)=Nc3ccccc3S2)cc1 (centres undefined)", "Agrobacterium tumefaciens", 1.49),
    ("COc1cccc(C2CC(c3cccc(O)c3)=Nc3ccccc3S2)c1 (centres undefined)", "Agrobacterium tumefaciens", 0.52),
    ("Oc1cccc(C2=Nc3ccccc3SC(c3ccc(Br)s3)C2)c1 (centres undefined)", "Agrobacterium tumefaciens", 1.05),
    ("COc1ccc(/C=C/C(=O)c2cccc(O)c2)cc1OC", "Agrobacterium tumefaciens", 0.76),
    ("Oc1cccc(C2=Nc3ccccc3SC(c3cccnc3)C2)c1 (centres undefined)", "Agrobacterium tumefaciens", 2.97),
    ("Oc1cccc(C2=Nc3ccccc3SC(c3ccc(Br)cc3)C2)c1 (centres undefined)", "Agrobacterium tumefaciens", 1.79),
    ("Oc1ccc(C2CC(c3cccc(O)c3)=Nc3ccccc3S2)cc1 (centres undefined)", "Agrobacterium tumefaciens", 2.38),
    ("COc1ccccc1C1CC(c2cccc(O)c2)=Nc2ccccc2S1 (centres undefined)", "Agrobacterium tumefaciens", 0.85),
    ("Oc1cccc(C2=Nc3ccccc3SC(c3ccccc3)C2)c1 (centres undefined)", "Agrobacterium tumefaciens", 0.73),
    ("Oc1cccc(C2=Nc3ccccc3SC(c3ccccc3F)C2)c1 (centres undefined)", "Agrobacterium tumefaciens", 2.47),
    ("COc1ccc(C2CC(c3cccc(O)c3)=Nc3ccccc3S2)cc1OC (centres undefined)", "Agrobacterium tumefaciens", 0.92),
    ("Oc1cccc(C2=Nc3ccccc3SC(c3cccs3)C2)c1 (centres undefined)", "Agrobacterium tumefaciens", 0.68),
    ("COc1ccc(C2CC(c3cccc(O)c3)=Nc3ccccc3S2)cc1 (centres undefined)", "Agrobacterium tumefaciens", 0.67),
    ("Oc1cccc(C2=Nc3ccccc3SC(c3ccccc3Cl)C2)c1 (centres undefined)", "Agrobacterium tumefaciens", 0.84),
    ("COc1cc(C2CC(c3cccc(O)c3)=Nc3ccccc3S2)ccc1O (centres undefined)", "Agrobacterium tumefaciens", 2.39),
    ("Oc1cccc(C2=Nc3ccccc3SC(c3ccc(F)cc3)C2)c1 (centres undefined)", "Agrobacterium tumefaciens", 3.09),
    ("Oc1cccc(C2=Nc3ccccc3SC(c3cccc(Cl)c3)C2)c1 (centres undefined)", "Agrobacterium tumefaciens", 1.15),
    ("Oc1cccc(C2=Nc3ccccc3SC(c3ccncc3)C2)c1 (centres undefined)", "Agrobacterium tumefaciens", 0.79),
    ("COc1ccccc1/C=C/C(=O)c1cccc(O)c1", "Agrobacterium tumefaciens", 0.49),
    ("CN(C)c1ccc(C2CC(c3cccc(O)c3)=Nc3ccccc3S2)cc1 (centres undefined)", "Agrobacterium tumefaciens", 2.28),
    ("O=[N+]([O-])c1cccc(C2CC(c3cccc(O)c3)=Nc3ccccc3S2)c1 (centres undefined)", "Agrobacterium tumefaciens", 1.42),
    ("Oc1cccc(C2=Nc3ccccc3SC(c3ccc(Cl)cc3)C2)c1 (centres undefined)", "Agrobacterium tumefaciens", 0.95),
    ("Oc1cccc(C2=Nc3ccccc3SC(c3cccc(O)c3)C2)c1 (centres undefined)", "Agrobacterium tumefaciens", 2.25),
    ("CC[C@]1(O)C[C@H]2CN(CCc3c([nH]c4ccccc34)[C@@](C(=O)OC)(c3cc4c(cc3OC)N(C=O)[C@H]3[C@@](O)(C(=O)OC)[C@H](OC(C)=O)[C@]5(CC)C=CCN6CC[C@]43[C@@H]65)C2)C1", "Agrobacterium tumefaciens", -2.52),
]
